Kindly supply the reported protein stability index values for the records listed here.
B1: ANKRD40 (parent)
chain: SLRENDFIEIELDRQELTYQELLR

Variants of: B1
Assay: protein stability index of a GFP-peptide fusion (GPS, HEK-293T) (PSI 1-6); higher = more stable;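 also: lentivirally expressed fusions sorted by FACS into six bins by GFP to DsRed ratio, PSI derived from sequencing read proportions per bin multiplied by bin number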
Details: c terminus: a fixed tail appended
Write the number on its own, no unit after it.

Problem: Record request: protein stability index value, item L23C
Result: 2.97

Problem: Record request: protein stability index value, item S1C
Result: 3.07

Problem: Record request: protein stability index value, item E11A
Result: 3.15

Problem: Record request: protein stability index value, item I8W
Result: 3.26

Problem: Record request: protein stability index value, item L12E
Result: 4.41

Problem: Record request: protein stability index value, item E4S
Result: 3.21

Problem: Record request: protein stability index value, item Q15H
Result: 2.75

Problem: Record request: protein stability index value, item E9N
Result: 2.82

Problem: Record request: protein stability index value, item E11Y
Result: 2.16

Problem: Record request: protein stability index value, item E11W
Result: 1.98

Problem: Record request: protein stability index value, item Q15T
Result: 2.91

Problem: Record request: protein stability index value, item R14P
Result: 2.86

Problem: Record request: protein stability index value, item N5S
Result: 2.77

Problem: Record request: protein stability index value, item R24C
Result: 2.72

Problem: Record request: protein stability index value, item Q15P
Result: 2.78

Problem: Record request: protein stability index value, item D6W
Result: 2.31

Problem: Record request: protein stability index value, item D6C
Result: 2.28

Problem: Record request: protein stability index value, item R14V
Result: 2.06

Problem: Record request: protein stability index value, item L23H
Result: 3.6
